measuredOn: hERG (Homo sapiens)
Sequence (Q12809 whole entry): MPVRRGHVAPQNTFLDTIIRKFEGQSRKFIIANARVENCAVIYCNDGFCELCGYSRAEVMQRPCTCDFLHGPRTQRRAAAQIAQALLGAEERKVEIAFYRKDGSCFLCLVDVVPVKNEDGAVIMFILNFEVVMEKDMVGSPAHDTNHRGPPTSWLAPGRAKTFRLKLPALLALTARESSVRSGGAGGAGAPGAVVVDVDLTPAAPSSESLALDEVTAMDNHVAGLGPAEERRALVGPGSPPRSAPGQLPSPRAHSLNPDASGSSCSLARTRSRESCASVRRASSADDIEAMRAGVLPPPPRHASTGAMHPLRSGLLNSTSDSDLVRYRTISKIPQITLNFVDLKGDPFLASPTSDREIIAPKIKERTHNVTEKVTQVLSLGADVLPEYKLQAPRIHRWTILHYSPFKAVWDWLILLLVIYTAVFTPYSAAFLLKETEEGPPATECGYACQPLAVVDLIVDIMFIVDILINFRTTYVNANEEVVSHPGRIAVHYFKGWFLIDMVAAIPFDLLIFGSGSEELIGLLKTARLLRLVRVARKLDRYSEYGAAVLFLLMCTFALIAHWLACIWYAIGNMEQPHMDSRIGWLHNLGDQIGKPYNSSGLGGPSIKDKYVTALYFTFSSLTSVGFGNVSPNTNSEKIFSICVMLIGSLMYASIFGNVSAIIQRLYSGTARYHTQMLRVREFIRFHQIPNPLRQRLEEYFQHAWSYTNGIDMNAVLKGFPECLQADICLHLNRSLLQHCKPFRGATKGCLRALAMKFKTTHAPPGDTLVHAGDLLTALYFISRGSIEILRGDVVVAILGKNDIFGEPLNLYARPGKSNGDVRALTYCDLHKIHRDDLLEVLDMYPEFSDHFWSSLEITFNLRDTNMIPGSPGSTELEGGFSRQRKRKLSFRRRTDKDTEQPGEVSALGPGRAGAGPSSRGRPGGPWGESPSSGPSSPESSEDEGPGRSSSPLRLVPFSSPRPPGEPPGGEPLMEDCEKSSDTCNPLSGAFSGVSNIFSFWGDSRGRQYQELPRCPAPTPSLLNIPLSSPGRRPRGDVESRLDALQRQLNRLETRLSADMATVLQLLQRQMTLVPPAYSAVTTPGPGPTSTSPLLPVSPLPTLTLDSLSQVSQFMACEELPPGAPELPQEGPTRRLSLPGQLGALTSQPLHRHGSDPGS
assayComment: hERG channel blockade, manual patch clamp
Assay type: cell-based
measurementSetup: cloned hERG potassium channels, 1.0 µM, room temperature, read-out: hERG % inhib. at 1.0 µM
quantity: inhibition at 1 µM

Look over these answered cases.
substanceSmiles: Fc1ccc(-c2cnn3c(NCc4cc(N5CCCCC5)ccn4)cc(-c4ccccc4)nc23)cc1
val: 36%
//
substanceSmiles: Fc1ccc(-c2cnn3c(NCc4ccccn4)cc(-c4ccccc4F)nc23)cc1
val: 36%
//
substanceSmiles: CC(C)(C)c1ccc(-c2cc(NCc3ccccn3)n3ncc(-c4ccc(F)cc4)c3n2)cc1
val: 0%
//
substanceSmiles: Fc1ccc(-c2cnn3c(NCc4ccccn4)cc(-c4ccoc4)nc23)cc1
val: 14%
//
substanceSmiles: COc1ccnc(CNc2cc(-c3ccccc3)nc3c(-c4ccc(F)cc4)cnn23)c1
val: 4.6%

Please supply the value of reported inhibition at 1 µM for the item Fc1ccc(-c2cnn3c(NCc4ccccn4)cc(-c4ccccc4)nc23)cc1
5%

====

Test system: Mycobacterium tuberculosis (strain H37Rv)
assayComment: MABA minimum inhibitory concentration assay (aerobic/replicating)
Assay type: cell-based
measurementSetup: Mycobacterium tuberculosis; M.tb H37Rv, aerobic/replicating; 90% inhibition of growth
MIC90 vs 2 µg/mL: less than gives rule met; not less than gives rule not met.

These solved cases illustrate the format of a correct answer.
molecule: N#Cc1cccnc1CNc1cc(-c2ccccc2)nc2c(-c3ccc(F)cc3)cnn12 [Compound 72]
answerLabel: rule not met

molecule: CN(C)c1cccc(CNc2cc(-c3ccccc3)nc3c(-c4ccc(F)cc4)cnn23)n1 [Compound 49]
answerLabel: rule met

molecule: Fc1ccc(-c2cnn3c(NCc4cc(N5CCCC5)ccn4)cc(-c4ccccc4)nc23)cc1 [Compound 64]
answerLabel: rule met

molecule: Fc1ccccc1-c1cnn2c(NCc3ccccn3)cc(-c3ccccc3)nc12 [Compound 11]
answerLabel: rule not met

molecule: CN(C)CCOc1ccc(CNc2cc(-c3ccccc3)nc3c(-c4ccc(F)cc4)cnn23)nc1 [Compound 57]
answerLabel: rule not met

Criterion: MIC90 strictly below 2 µg/mL. Is it met by CN(C)c1cccnc1CNc1cc(-c2ccccc2)nc2c(-c3ccc(F)cc3)cnn12 [Compound 69] ?
rule met

Criterion: MIC90 strictly below 2 µg/mL. Is it met by Fc1ccc(-c2cnn3c(NCc4cc(Cl)ccn4)cc(-c4ccccc4)nc23)cc1 [Compound 60] ?
rule not met

Criterion: MIC90 strictly below 2 µg/mL. Is it met by Cc1cccc(CNc2cc(-c3ccccc3)nc3c(-c4ccc(F)cc4)cnn23)n1 [Compound 47] ?
rule not met

Criterion: MIC90 strictly below 2 µg/mL. Is it met by Fc1ccc(-c2cnn3c(NCc4ccccn4)cc(-c4ccncc4)nc23)cc1 [Compound 40] ?
rule not met

Criterion: MIC90 strictly below 2 µg/mL. Is it met by Cc1cccc(-c2cc(NCc3ccccn3)n3ncc(-c4ccc(F)cc4)c3n2)c1 [Compound 30] ?
rule met

Criterion: MIC90 strictly below 2 µg/mL. Is it met by Fc1ccc(-c2cnn3c(NCc4ccccn4)cc(C4=CCCC4)nc23)cc1 [Compound 26] ?
rule met

Criterion: MIC90 strictly below 2 µg/mL. Is it met by Cc1ccc(-c2cc(NCc3ccccn3)n3ncc(-c4ccc(F)cc4)c3n2)cc1 [Compound 33] ?
rule not met

Criterion: MIC90 strictly below 2 µg/mL. Is it met by Fc1cccc(-c2cnn3c(NCc4ccccn4)cc(-c4ccccc4)nc23)c1 [Compound 14] ?
rule not met
